ASSAYED TARGET: recombinant human VAP-1 (Homo sapiens, UniProt Q16853)
Construct: purchased R&D systems
Sequence (Q16853 whole entry): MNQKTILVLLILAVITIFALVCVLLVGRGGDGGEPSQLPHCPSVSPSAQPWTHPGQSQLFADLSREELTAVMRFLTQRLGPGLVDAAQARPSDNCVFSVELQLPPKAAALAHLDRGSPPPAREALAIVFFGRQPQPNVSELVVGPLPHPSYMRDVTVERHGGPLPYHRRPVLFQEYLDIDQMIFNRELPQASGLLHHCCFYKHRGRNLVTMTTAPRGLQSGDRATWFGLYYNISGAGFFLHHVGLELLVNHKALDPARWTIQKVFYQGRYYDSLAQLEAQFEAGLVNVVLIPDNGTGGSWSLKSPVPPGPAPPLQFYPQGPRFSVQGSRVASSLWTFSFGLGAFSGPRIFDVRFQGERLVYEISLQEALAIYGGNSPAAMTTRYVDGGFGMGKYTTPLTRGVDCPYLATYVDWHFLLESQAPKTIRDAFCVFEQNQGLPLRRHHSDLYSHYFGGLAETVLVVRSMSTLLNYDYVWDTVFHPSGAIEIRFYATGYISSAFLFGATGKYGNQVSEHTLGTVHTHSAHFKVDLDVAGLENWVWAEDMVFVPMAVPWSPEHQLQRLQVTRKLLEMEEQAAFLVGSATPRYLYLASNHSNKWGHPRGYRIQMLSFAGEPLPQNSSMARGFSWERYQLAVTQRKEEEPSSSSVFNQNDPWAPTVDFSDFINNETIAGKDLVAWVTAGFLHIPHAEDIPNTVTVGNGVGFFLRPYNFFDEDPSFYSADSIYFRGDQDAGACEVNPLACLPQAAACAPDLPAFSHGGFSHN
ASSAY NOTES: Activity on recombinant human VAP-1, Amplex Red HRP-coupled hydrogen peroxide assay, benzylamine substrate
Format: biochemical
CONDITIONS USED: recombinant human VAP-1, benzylamine substrate, 30 min preincubation at 37° C.; read-out: Inhibitory Activity (IC50, nM) human VAP-1
Description: The compounds according to the present technology were evaluated in terms of activity on recombinant human VAP-1 (R&D systems) by measuring the level of hydrogen peroxide in horseradish peroxidase (HRP)-coupled reaction using Amplex Red Hydrogen Peroxide Assay Kit (Molecular Probes, Invitrogen, USA). […] The inhibitory effect of the compounds was measured as a decrease (%) in the signal rate as compared to the control group without any inhibitor (only diluted DMSO). […]
Where a name gives a salt, the structure may show the parent alone.
READOUT: IC50 (nM)

• Cc1cc(-c2ccc(N3CCNCC3)cc2)cnc1-n1cnn(C/C(=C/F)CN)c1=O [Example 145, hydrochloride] = 0.9

a = CC(=O)Nc1ccc(-c2cccc(-n3cnn(C/C(=C/F)CN)c3=O)c2C)cc1 [Example 107]
b = NC/C(=C/F)Cn1ncn(-c2ccc(Br)nc2)c1=O [Example 24]
c = NC/C(=C\F)Cn1ncn(-c2cccc(Br)n2)c1=O [Example 37]
d = CC(=O)c1ccc(-c2cnc(-n3cnn(C/C(=C/F)CN)c3=O)c(C)c2)s1 [Example 132, hydrochloride]
Arrange these compounds by their IC50, starting with the largest number. # list labels per requested ordering
b, a, c, d

I = NC/C(=C\F)Cn1ncn(-c2ncc(Br)cc2F)c1=O [Example 36, hydrochloride]
II = CC(=O)Nc1cc(-c2cccc(-n3cnn(C/C(=C/F)CN)c3=O)c2)ccn1 [Example 81, hydrochloride]
III = NC/C(=C\F)Cn1ncn(-c2cc(F)c(Br)c(F)c2)c1=O [Example 20, hydrochloride]
Arrange the 3 compounds by rising IC50, starting with the smallest. API: response body holds the labels in the requested order.
II, I, III
(II: 0.54 nM, I: 1.2 nM, III: 2.2 nM)

P = Cc1ncc(-c2cccc(-n3cnn(C/C(=C/F)CN)c3=O)c2)cn1 [Example 91, hydrochloride]
Q = Cc1cc(-c2ccc3cn[nH]c3c2)ncc1-n1cnn(C/C(=C/F)CN)c1=O [Example 126]
Pick one: P or Q . Which has the bigger IC50 number? To answer, give the label that identifies your chosen option.
P

###

ASSAYED TARGET: recombinant human MAO-B (monoamine oxidase-B) (Homo sapiens, UniProt P27338)
Construct: purchased Sigma-Aldrich
Sequence (P27338 whole entry): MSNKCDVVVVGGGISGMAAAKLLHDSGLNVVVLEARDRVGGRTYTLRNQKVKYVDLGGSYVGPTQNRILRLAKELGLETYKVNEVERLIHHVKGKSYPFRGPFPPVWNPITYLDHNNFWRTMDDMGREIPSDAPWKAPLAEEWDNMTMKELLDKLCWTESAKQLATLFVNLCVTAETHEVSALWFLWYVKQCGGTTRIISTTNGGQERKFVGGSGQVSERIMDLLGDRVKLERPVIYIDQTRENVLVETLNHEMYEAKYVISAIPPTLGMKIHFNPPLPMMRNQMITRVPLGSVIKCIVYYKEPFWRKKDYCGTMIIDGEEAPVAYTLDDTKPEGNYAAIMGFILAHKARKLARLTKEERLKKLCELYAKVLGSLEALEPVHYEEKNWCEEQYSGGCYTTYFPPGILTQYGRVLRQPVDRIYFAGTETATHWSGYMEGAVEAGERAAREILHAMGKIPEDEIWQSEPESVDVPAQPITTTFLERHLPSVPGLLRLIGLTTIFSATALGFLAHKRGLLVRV
ASSAY NOTES: Activity on recombinant human MAO-B, Amplex Red method, 1 mM benzylamine substrate
Type: biochemical
CONDITIONS USED: 1 mM benzylamine, read-out: Inhibitory Activity (IC50, nM) MAO-B
Structures can show the parent of a compound that is named as a salt.
READOUT: IC50

* Cc1cc(-c2cccc(-c3nnc[nH]3)c2)cnc1-n1cnn(C/C(=C/F)CN)c1=O | 3790 nM
* Cc1cc(-c2ccc(N3CCNCC3)cc2)cnc1-n1cnn(C/C(=C/F)CN)c1=O [Example 145, hydrochloride] | > 10000 nM
* CS(=O)(=O)c1ccc(-c2cccc(-n3cnn(C/C(=C/F)CN)c3=O)c2)cc1 [Example 54, hydrochloride] | > 10000 nM
* CC(=O)Nc1cc(-c2cnc(-n3cnn(C/C(=C/F)CN)c3=O)c(C)c2)ccn1 [Example 147, hydrochloride] | > 10000 nM
* Cc1cc(-c2ccc(N3CCOCC3)nc2)cnc1-n1cnn(C/C(=C/F)CN)c1=O [Example 149, hydrochloride] | > 10000 nM

--- query ---
// IC50 lookup, compound = NC/C(=C\F)Cn1ncn(-c2cccc(-c3ccc(-c4ccc5c(c4)OCO5)cc3)c2)c1=O [Example 70, hydrochloride] , result: 1620 nM

###

ASSAYED TARGET: recombinant human DAO (diamine oxidase) (Homo sapiens)
Construct: purchased R&D systems
Sequence (P19801 20-751): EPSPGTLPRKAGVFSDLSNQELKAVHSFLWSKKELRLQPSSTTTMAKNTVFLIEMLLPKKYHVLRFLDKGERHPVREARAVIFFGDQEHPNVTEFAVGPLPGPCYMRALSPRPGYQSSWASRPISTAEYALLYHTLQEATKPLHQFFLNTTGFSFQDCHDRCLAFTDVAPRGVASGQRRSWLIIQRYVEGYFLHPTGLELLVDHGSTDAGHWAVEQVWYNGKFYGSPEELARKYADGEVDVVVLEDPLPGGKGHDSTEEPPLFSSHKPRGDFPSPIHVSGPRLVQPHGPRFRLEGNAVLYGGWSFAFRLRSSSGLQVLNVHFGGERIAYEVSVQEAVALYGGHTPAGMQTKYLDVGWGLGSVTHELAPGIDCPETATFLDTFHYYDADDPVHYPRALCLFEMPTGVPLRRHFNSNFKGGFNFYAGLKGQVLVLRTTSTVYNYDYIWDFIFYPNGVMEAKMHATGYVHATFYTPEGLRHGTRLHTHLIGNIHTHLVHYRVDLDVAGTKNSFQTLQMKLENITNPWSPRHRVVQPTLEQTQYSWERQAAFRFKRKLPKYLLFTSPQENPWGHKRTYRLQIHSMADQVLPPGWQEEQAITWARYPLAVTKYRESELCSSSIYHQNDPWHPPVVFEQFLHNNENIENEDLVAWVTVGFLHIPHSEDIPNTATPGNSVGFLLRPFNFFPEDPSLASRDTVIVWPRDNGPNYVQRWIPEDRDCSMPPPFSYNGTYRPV
ASSAY NOTES: Activity on recombinant human DAO, Amplex Red method, 1 mM putrescine substrate
Assay type: biochemical
CONDITIONS USED: recombinant human DAO, 1 mM putrescine substrate; read-out: Inhibitory Activity (IC50, nM) DAO
Experimental: The compounds according to the present technology were evaluated in terms of activity on recombinant human VAP-1 (R&D systems) by measuring the level of hydrogen peroxide in horseradish peroxidase (HRP)-coupled reaction using Amplex Red Hydrogen Peroxide Assay Kit (Molecular Probes, Invitrogen, USA). […] The inhibitory effect of the compounds was measured as a decrease (%) in the signal rate as compared to the control group without any inhibitor (only diluted DMSO). […]
Structures can show the parent of a compound that is named as a salt.
READOUT: IC50 (nM)

* Cc1cc(-c2ccc3c(c2)NC(=O)OC3)cnc1-n1cnn(C/C(=C/F)CN)c1=O [Example 156, hydrochloride] | 38
* NC/C(=C\F)Cn1ncn(-c2cccc(-c3ccc4sc(N)nc4c3)n2)c1=O | 11
* CC(C)c1nc(-c2cccc(-c3cccc(-n4cnn(C/C(=C/F)CN)c4=O)n3)c2)no1 | 2.1
* Cc1cc(-c2cccc(-n3cnn(C/C(=C/F)CN)c3=O)n2)cnc1F [Example 190, hydrochloride] | 5
* Cc1ccc(-c2ccc3c(c2)NC(=O)CO3)nc1-n1cnn(C/C(=C/F)CN)c1=O [Example 216, hydrochloride] | 4200
* NC/C(=C\F)Cn1ncn(-c2cc(C#Cc3ccccn3)ccn2)c1=O [Example 244, hydrochloride] | 12
* Cc1ccc(-c2cccc(-c3noc(C4CC4)n3)c2)nc1-n1cnn(C/C(=C/F)CN)c1=O [Example 210, hydrochloride] | 4400
* COc1ccc(-c2ccc(C)c(-n3cnn(C/C(=C/F)CN)c3=O)n2)cn1 [Example 212, hydrochloride] | 2200
* NC/C(=C\F)Cn1ncn(-c2cccc(-c3cccc(-c4noc(C5CC5)n4)c3)n2)c1=O [Example 179, hydrochloride] | 3.1
* Cc1ccc(-c2cc(C)c3c(c2)CCC(=O)N3)nc1-n1cnn(C/C(=C/F)CN)c1=O [Example 215, hydrochloride] | 290

a = NC/C(=C\F)Cn1ncn(-c2ncc(-c3ccc4c(c3)NC(=O)C4)s2)c1=O
b = NC/C(=C\F)Cn1ncn(-c2cccc(-c3ccc(-c4cnon4)cc3)n2)c1=O [Example 177, hydrochloride]
Record comparison, field IC50: mark the lower of a and b . Respond with the label that goes with your answer.
a

I = NC/C(=C\F)Cn1ncn(-c2cccc(-c3ccc4c(c3)OCO4)n2)c1=O
II = Cn1nc(C(F)(F)F)cc1-c1cccc(-n2cnn(C/C(=C/F)CN)c2=O)n1 [Example 192, hydrochloride]
Between item I and item II , which reported IC50 is smaller? Respond with the label that goes with your answer.
II

1 = NC/C(=C\F)Cn1ncn(-c2cccc(C#Cc3ccc4c(c3)CCC(=O)N4)n2)c1=O
2 = NC/C(=C\F)Cn1ncn(-c2cccc(-c3ccc4c(c3)OCCO4)n2)c1=O
3 = NC/C(=C\F)Cn1ncn(-c2cccc(/C=C/c3cnc4[nH]c(=O)oc4c3)n2)c1=O [Example 242, hydrochloride]
Hello, I need these entries ordered by IC50, highest reading first. Thanks! The response must list the labels following the requested ordering.
1, 3, 2

A = CN(C)c1ccc(/C=C/c2cccc(-n3cnn(C/C(=C/F)CN)c3=O)n2)cc1 [Example 239, hydrochloride]
B = NC/C(=C\F)Cn1ncn(-c2cccc(-c3ccc(N4CCCC4)cc3)n2)c1=O [Example 183, hydrochloride]
// which entry has the larger IC50 value, A or B ? I would appreciate it if you answered with the label of your choice.
A
(A: 1600 nM, B: 350 nM)

###

ASSAYED TARGET: recombinant human VAP-1 (Homo sapiens)
Construct: purchased R&D systems
ASSAY NOTES: Activity on recombinant human VAP-1, Amplex Red HRP-coupled hydrogen peroxide assay, benzylamine substrate
Type: biochemical
CONDITIONS USED: recombinant human VAP-1, benzylamine substrate; read-out: Inhibitory Activity (IC50, nM) human VAP-1
Structures can show the parent of a compound that is named as a salt.
READOUT: IC50 (nM)

• CC(=O)Nc1cc(-c2ccnc(-n3cnn(C/C(=C/F)CN)c3=O)c2)ccn1 = 0.39

P = CN(C)c1ccc(-c2cccc(-n3cnn(C/C(=C/F)CN)c3=O)n2)cn1 [Example 188, hydrochloride]
Q = NC/C(=C\F)Cn1ncn(-c2ncc(-c3cccc(-c4nnc[nH]4)c3)s2)c1=O
R = Cc1ccc(-c2ccc3c(c2)NC(=O)CO3)nc1-n1cnn(C/C(=C/F)CN)c1=O [Example 216, hydrochloride]
hey, can you rank those compounds up there by IC50? biggest number first please Please, when replying, give the labels in the order that was requested.
R, P, Q

###

ASSAYED TARGET: recombinant human DAO (diamine oxidase) (Homo sapiens)
Construct: purchased R&D systems
ASSAY NOTES: Activity on recombinant human DAO, Amplex Red method, 1 mM putrescine substrate
Type: biochemical
CONDITIONS USED: recombinant human DAO, 1 mM putrescine substrate; read-out: Inhibitory Activity (IC50, nM) DAO
Where a name gives a salt, the structure may show the parent alone.
READOUT: IC50

Sample answers from the record:
- NC/C(=C/F)Cn1ncn(-c2ncc(-c3ccc4nonc4c3)s2)c1=O [Example 234, hydrochloride]: < 100 nM
- NC/C(=C\F)Cn1ncn(-c2cccc(-c3ccc4nonc4c3)n2)c1=O [Example 195]: < 30 nM
- NC/C(=C\F)Cn1ncn(-c2cccc(-c3ccc(C(=O)N4CCOCC4)cc3)n2)c1=O [Example 186, hydrochloride]: < 10 nM

Now consider a different compound.
Recorded IC50 (compound NC/C(=C\F)Cn1ncn(-c2cc(-c3ccc(-c4ccon4)cc3)ccn2)c1=O [Example 167] ): < 30 nM
